target: Dimer of Gag-Pol polyprotein [501-599,Q508K,L534I,L564I,C568A,C596A] (Human immunodeficiency virus 1, UniProt P03367, C568A/C596A/L534I/L564I/Q508K); construct: 501-599; test: Protease Inhibition Assay; settings: pH 6.8; 25 °C
outcome.measure: IC50 (nM)
// note: answer is a bare numeric in nM

Given COc1ccc(S(=O)(=O)N(C[C@@H](O)[C@H](Cc2ccccc2)NC(=O)[C@@H](NC(=O)c2ccc3ccccc3n2)C(N)=O)OC2CCCC2)cc1 [N-alkoxysulfonamide analog entry j] , state its recorded IC50. 24

What do we get for "COC(=O)N[C@H](C(=O)N[C@@H](Cc1ccccc1)[C@H](O)CN(OC1CCCC1)S(=O)(=O)c1ccc(OC)cc1)C(C)(C)C" ? 203

What do we get for "COc1ccc(S(=O)(=O)N(C[C@@H](O)[C@H](Cc2ccccc2)NC(=O)O[C@H]2CCOC2)OC2CCCC2)cc1" ? 738

What do we get for COc1ccc(S(=O)(=O)N(C[C@@H](O)[C@H](Cc2ccccc2)NC(=O)O[C@H]2CO[C@H]3OCC[C@H]32)OC2CCCC2)cc1 [N-alkoxysulfonamide analog entry k] ? 6

* * *

target: Dimer of Gag-Pol polyprotein [501-599,Q508K,L534I,L564I,C568A,C596A] (Human immunodeficiency virus 1, UniProt P03367, C568A/C596A/L534I/L564I/Q508K); construct: 501-599; assay: Protease Inhibition Assay; conditions: pH 6.8; 25 °C
pKi: −log10 of the molar value.
Assignment: determine reported pKi for the given compounds.

Given "COc1ccc(S(=O)(=O)N(C[C@@H](O)[C@H](Cc2ccccc2)NC(=O)O[C@H]2CCOC2)OC2CCCC2)cc1" , state its recorded pKi. 9.72

What do we get for COc1ccc(S(=O)(=O)N(C[C@@H](O)[C@H](Cc2ccccc2)NC(=O)O[C@H]2CO[C@H]3OCC[C@H]32)OC2CCCC2)cc1 [N-alkoxysulfonamide analog entry k] ? > 11.30

What do we get for COc1ccc(S(=O)(=O)N(C[C@@H](O)[C@H](Cc2ccccc2)NC(=O)[C@@H](NC(=O)c2ccc3ccccc3n2)C(N)=O)OC2CCCC2)cc1 [N-alkoxysulfonamide analog entry j] ? > 11.30

Sourced from BindingDB's records for doi:10.1016/j.bmcl.2005.05.101
